value kind: pIC50
Interpret pIC50 as the negative base-10 log of the concentration measured in mol/L.

Observed pIC50, prostaglandin synthetase (Ovis aries, UniProt P05979), O=C(c1ccccc1)c1ccccc1O [2-hydroxybenzophenone] : 5.42
